# credit: patent US20240382629A1

Quick list: log10 IC50 per entry.
# measuredTarget: DPPIV (Homo sapiens (Human))
# Sequence (P27487 whole entry): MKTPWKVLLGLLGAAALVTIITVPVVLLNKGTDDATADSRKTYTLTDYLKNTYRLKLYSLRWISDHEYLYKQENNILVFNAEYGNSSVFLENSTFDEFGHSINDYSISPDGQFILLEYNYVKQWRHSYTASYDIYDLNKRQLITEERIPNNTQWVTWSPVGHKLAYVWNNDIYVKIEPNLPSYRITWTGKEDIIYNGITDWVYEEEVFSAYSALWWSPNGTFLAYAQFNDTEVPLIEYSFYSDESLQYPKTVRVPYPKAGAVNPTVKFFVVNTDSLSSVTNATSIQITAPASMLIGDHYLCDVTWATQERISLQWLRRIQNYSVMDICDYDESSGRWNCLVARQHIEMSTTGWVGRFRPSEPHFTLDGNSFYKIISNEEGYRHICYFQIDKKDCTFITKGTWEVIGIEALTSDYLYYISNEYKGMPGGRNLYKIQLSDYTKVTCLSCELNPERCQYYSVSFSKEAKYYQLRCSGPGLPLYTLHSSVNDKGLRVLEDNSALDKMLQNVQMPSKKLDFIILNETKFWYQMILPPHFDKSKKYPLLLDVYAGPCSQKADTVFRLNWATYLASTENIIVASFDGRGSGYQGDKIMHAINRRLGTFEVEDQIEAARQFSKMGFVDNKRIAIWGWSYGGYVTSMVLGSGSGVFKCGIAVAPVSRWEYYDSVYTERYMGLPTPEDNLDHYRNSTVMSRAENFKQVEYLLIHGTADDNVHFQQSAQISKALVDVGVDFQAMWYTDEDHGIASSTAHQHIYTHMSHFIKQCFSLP
# methodNotes: DPPIV inhibition assay (recombinant enzyme, H-Gly-Pro-AMC substrate)
# Format: biochemical
# assayConditions: Table 3; read-out: DPPIV IC50
quantityKind: log10 IC50 (log10 of the value in µM)

[[record]]
compound = "N#C[C@@H]1CCCN1C(=O)CNC(=O)c1ccnc2ccc(OCCCNC(=O)CNC(=O)[C@H](CCCCNC(=O)c3ccc(F)nc3)NC(=O)CN3CCN(CC(=O)O)CCN(CC(=O)O)CCN(CC(=O)O)CC3)cc12 [JHU1221804]"
measuredtarget = "DPPIV (Homo sapiens (Human))"
recordedmeasurement = 0.92

[[record]]
compound = "N#C[C@@H]1CCCN1C(=O)CNC(=O)c1ccnc2ccc(OCCCNC(=O)CCOCCOCCOCCOCCNC(=O)[C@H](CCCCNC(=O)c3ccc(F)nc3)NC(=O)CN3CCN(CC(=O)O)CCN(CC(=O)O)CCN(CC(=O)O)CC3)cc12 [JHU1221823]"
measuredtarget = "DPPIV (Homo sapiens (Human))"
recordedmeasurement = 0.87

[[record]]
compound = "N#C[C@@H]1CCCN1C(=O)CNC(=O)c1ccnc2ccc(OCCCNC(=O)[C@@H](CC(=O)O)NC(=O)[C@@H](CC(=O)O)NC(=O)c3ccc(F)nc3)cc12 [JHU1221785]"
measuredtarget = "DPPIV (Homo sapiens (Human))"
recordedmeasurement = 1.25

[[record]]
compound = "N#CC1CCCN1C(=O)CNC(=O)c1ccnc2ccc(OCCCNC(=O)CCc3cn(CCCC[C@H](NC(=O)CN4CCN(CC(=O)O)CCN(CC(=O)O)CC4)C(=O)NCCCOc4ccc5nccc(C(=O)NCC(=O)N6CCC[C@H]6C#N)c5c4)nn3)cc12 (stereo partly shown) [SB-FAP-09]"
measuredtarget = "DPPIV (Homo sapiens (Human))"
recordedmeasurement = 0.31

[[record]]
compound = "N#C[C@@H]1CCCN1C(=O)CNC(=O)c1ccnc2ccc(OCCCN(Cc3ccc(I)cc3)C(=O)CN3CCN(CC(=O)O)CCN(CC(=O)O)CCN(CC(=O)O)CC3)cc12 [JHU1220627]"
measuredtarget = "DPPIV (Homo sapiens (Human))"
recordedmeasurement = 2.92

[[record]]
compound = "N#C[C@@H]1CCCN1C(=O)CNC(=O)c1ccnc2ccc(OCCCNC(=O)CCc3cn(CCCC[C@H](NC(=O)c4ccc(F)nc4)C(=O)NCCNC(=O)CCC(C(=O)O)N4CCN(CC(=O)O)CCN(CC(=O)O)CCN(CC(=O)O)CC4)nn3)cc12 (stereo partly shown) [SB-FAP-11]"
measuredtarget = "DPPIV (Homo sapiens (Human))"
recordedmeasurement = 0.98

[[record]]
compound = "N#C[C@@H]1CC(F)(F)CN1C(=O)CNC(=O)c1ccnc2ccc(F)cc12 [JHU1220466]"
measuredtarget = "DPPIV (Homo sapiens (Human))"
recordedmeasurement = 0.54

[[record]]
compound = "N#C[C@@H]1CCCN1C(=O)CNC(=O)c1ccnc2ccc(OCCOCCNC(=O)[C@H](CCCCNC(=O)c3ccc(F)nc3)NC(=O)CN3CCN(CC(=O)O)CCN(CC(=O)O)CCN(CC(=O)O)CC3)cc12 [JHU1221803]"
measuredtarget = "DPPIV (Homo sapiens (Human))"
recordedmeasurement = 0.79

[[record]]
compound = "N#C[C@@H]1CCCN1C(=O)CNC(=O)c1ccnc2ccc(OCCCN(Cc3ccc(F)nc3)C(=O)CN3CCN(CC(=O)O)CCN(CC(=O)O)CCN(CC(=O)O)CC3)cc12 [JHU1221709]"
measuredtarget = "DPPIV (Homo sapiens (Human))"
recordedmeasurement = 1.10

[[record]]
compound = "N#C[C@@H]1C[C@H](F)CN1C(=O)CNC(=O)c1ccnc2ccc(F)cc12 [JHU1220471]"
measuredtarget = "DPPIV (Homo sapiens (Human))"
recordedmeasurement = 0.40

[[record]]
compound = "N#C[C@@H]1CCCN1C(=O)CNC(=O)c1ccnc2ccc(OCCCNC(=O)[C@@H](CC(=O)O)NC(=O)[C@@H](CC(=O)O)NC(=O)c3cccc(F)n3)cc12 [JHU1221708]"
measuredtarget = "DPPIV (Homo sapiens (Human))"
recordedmeasurement = 0.90

